Tested on: MOLT-4
Test: NCI tumour cell line growth inhibition, 48 h
Active and inactive are the calls of the source. No stated cut-off is given here; in the data, active = GI50 up to about 1.1 µM and inactive = higher.
Please state which outcome applies, choosing from y (active), n (inactive)

Lookup: Recorded call for CC(NC(=O)C(CC(=O)OCc1ccccc1)NC(=O)OCc1ccccc1)c1ccccc1 (stereo unspecified) ?
Found: n

* * *

Test system: SNB-19
Assay: NCI tumour cell line growth inhibition, 48 h
Calls of active or inactive are those of the source. Rule as the data show it: active = GI50 up to about 1.1 µM and inactive = higher.
Below is a list of entries, each paired with its recorded GI50 value.

Observe how each entry below is paired with its result.
Lookup: Retrieve GI50 measured for `Cc1cc(C)c2c(c1)C/C(=C\c1ccccc1C(=O)O)C2=O` and print it.
Found: > 100 µM (inactive)

Lookup: State its GI50 for this compound: COC(=O)C1CC/C(=N/C2c3ccccc3-c3ccccc32)N1 (stereo unspecified)
Found: > 100 µM (inactive)

Lookup: Look up GI50 of `C=CCOc1ccc(C(/N=N\c2ccc(Cl)cc2)=N/NC(=O)c2ccccc2)cc1OC` and report it.
Found: > 100 µM (inactive)

***
Lookup: Write down GI50 measured for item `NC1=NCCN1CC(=O)O`
Found: > 1000 µM (inactive)

Lookup: Answer with the recorded GI50 for the compound listed here: CC1(C)COC(C23C4C5C2C2C3C4C52I)=N1 (stereo unspecified)
Found: > 100 µM (inactive)

Lookup: # return recorded GI50 for input O=C(NC1CCC(=O)N1C(=O)OCc1ccccc1)OCc1ccccc1 (stereo unspecified)
Found: > 100 µM (inactive)

Lookup: Tell me measured GI50 for `N#Cc1c(O)c(/N=N/c2ccc(Cl)cc2)c(=O)n2c1[nH]c1ccccc12` please.
Found: 47.3 µM (inactive)

Lookup: Indicate its recorded GI50; the compound in question is `O=C1C(Cl)=C(Cl)C(=O)C(CCNc2nccs2)=C1Cl`
Found: > 100 µM (inactive)

Lookup: Return the recorded GI50 value; entry: `COC(=O)C(=Cc1cc(OC)c(OC)c(OC)c1-c1cc2c(cc1C(C)=O)OCO2)C(=O)OC`
Found: 39 µM (inactive)

Lookup: Indicate the recorded GI50 value for this compound: O=C1N(Cc2ccccc2)C2CSCC2N1Cc1ccccc1 (stereo unspecified)
Found: 63.2 µM (inactive)

Lookup: Fill in reported GI50 for this entry: CCCN(CCCC(NC(C)=O)C(=O)NCc1ccccc1)C(=O)NCCCl (stereo unspecified)
Found: > 100 µM (inactive)

* * *

System: SK-MEL-2
Test: NCI tumour cell line growth inhibition, 48 h
Activity calls are given as the source filed them. No stated cut-off is given here; in the data, active = GI50 up to about 1.1 µM and inactive = higher.
Your reply should match one of these outcome classes. active, inactive

Here are 6 compounds together with their reported answers.
Lookup: Would you mind telling me which call this test gave `c1ccc(SC(CCCCC(Sc2ccccc2)Sc2ccccc2)Sc2ccccc2)cc1` ?
Found: inactive

Lookup: Tell me the assay call for `NC(=O)c1cccc([N+](=O)[O-])c1` please.
Found: inactive

Lookup: Recorded test outcome, item `O=Cc1c2c(cc3c1CC1(C3)Cc3cc4c(c(C=O)c3C1)CCCC4)CCCC2`
Found: inactive

Lookup: // outcome(item) with item = CC(C)(C)OC(=O)C1/C(=C/CO)CN1C(=O)OC(C)(C)C (centres undefined)
Found: inactive

Lookup: Query: recorded result category for `COc1ccc(/C=C/C(=O)Oc2ccc(/C=C3\CCCCC3=O)cc2)cc1` in this test
Found: inactive

Lookup: Which result was noted for this compound in the test: `O=S(=O)(c1ccccc1)C1CN(Cc2ccccc2)CCN(Cc2ccccc2)C1`
Found: inactive

Continuing:
Lookup: Called result for `C1CNCCNCCN1`
Found: inactive
